# system.name: T1, HLA-A*02:01 (human)
# T1 construct: monomers captured on streptavidin plates; also called MHC class I
# experiment.description: UV peptide exchange ELISA

binder: KLIESKHEV
peptide exchange yield: 20 to 50%
--
binder: KLYEAVPQL
peptide exchange yield: 50 to 75%
--
binder: KMWEELPEVV
peptide exchange yield: 50 to 75%
--
binder: LLLDEEGTFSL
peptide exchange yield: 20 to 50%
--
binder: YLMDINGKMWL
peptide exchange yield: 50 to 75%
--
binder: GLLPTPLFGV
peptide exchange yield: 50 to 75%
--
binder: GLNDRSDAV
peptide exchange yield: 20 to 50%
--
binder: ILFRYPLTI
peptide exchange yield: 50 to 75%
--
binder: SLFGGTEITI
peptide exchange yield: 50 to 75%
--
binder: YLISELEAA
peptide exchange yield: 50 to 75%
